Field: pIC50. Provide a value for each of the compounds that follow.
- System: HepG2
- test-method-notes: Antiproliferative activity against human HepG2 cells after 48 hrs by MTT assay
- Format: functional, cell-based
- condition-summary: HepG2, 48 h
Convention used: pIC50 is expressed as -log10 of the molar concentration.

Using known records, supply pIC50 for COC(=O)[C@H](C)NP(=O)(Oc1ccccc1)Oc1cc(O)c2c(=O)cc(-c3ccccc3)oc2c1 (some centres not stated)
4.45

Using known records, supply pIC50 for COC(=O)CNP(=O)(Oc1ccccc1)Oc1cc(O)c2c(=O)cc(-c3ccccc3)oc2c1 (configuration not stated)
4.37

Using known records, supply pIC50 for O=c1cc(-c2ccc(O)c(O)c2)oc2cc(O)cc(O)c12
4.46

Using known records, supply pIC50 for COC(=O)[C@H](CC(C)C)NP(=O)(Oc1ccccc1)Oc1cc(O)c2c(=O)cc(-c3ccc(O)c(O)c3)oc2c1 (some centres not stated)
4.65

Using known records, supply pIC50 for COC(=O)[C@@H](NP(=O)(Oc1ccccc1)Oc1cc(O)c2c(=O)cc(-c3ccc(O)c(O)c3)oc2c1)C(C)C (some centres not stated)
4.78

Using known records, supply pIC50 for COC(=O)CNP(=O)(Oc1ccccc1)Oc1cc(OC(C)=O)c2c(=O)c(-c3ccc(OC(C)=O)cc3)coc2c1 (configuration not stated)
4.40

Using known records, supply pIC50 for COC(=O)[C@H](Cc1ccccc1)NP(=O)(Oc1ccccc1)Oc1cc(O)c2c(=O)cc(-c3ccc(O)cc3)oc2c1 (some centres not stated)
4.44

Using known records, supply pIC50 for COC(=O)[C@H](Cc1ccccc1)NP(=O)(Oc1ccccc1)Oc1cc(OC(C)=O)c2c(=O)cc(-c3ccc(OC(C)=O)cc3)oc2c1 (some centres not stated)
4.41

Using known records, supply pIC50 for COC(=O)[C@H](C)NP(=O)(Oc1ccccc1)Oc1ccc2c(=O)c(-c3ccc(OC(C)=O)cc3)coc2c1 (some centres not stated)
5.26

Using known records, supply pIC50 for COC(=O)CNP(=O)(Oc1ccccc1)Oc1cc(OC(C)=O)c2c(=O)cc(-c3ccc(OC(C)=O)cc3)oc2c1 (configuration not stated)
4.32

Using known records, supply pIC50 for COC(=O)CNP(=O)(Oc1ccccc1)Oc1ccc2c(=O)c(-c3ccc(O)cc3)coc2c1 (configuration not stated)
4.31

Using known records, supply pIC50 for COC(=O)[C@@H](NP(=O)(Oc1ccccc1)Oc1cc(O)c2c(=O)cc(-c3ccc(O)cc3)oc2c1)C(C)C (some centres not stated)
4.56

Using known records, supply pIC50 for COC(=O)[C@H](C)NP(=O)(Oc1ccccc1)Oc1cc(OC(C)=O)c2c(=O)cc(-c3ccc(OC(C)=O)cc3)oc2c1 (some centres not stated)
5.05
